Every entry's value here was drawn from paper PMC6555543.

# Assay target: RVFV CBD (CBD13, RVFV L protein cap-binding domain) (Rift Valley fever virus)
# Sequence (A2SZS3 1706-1822 limits assumed): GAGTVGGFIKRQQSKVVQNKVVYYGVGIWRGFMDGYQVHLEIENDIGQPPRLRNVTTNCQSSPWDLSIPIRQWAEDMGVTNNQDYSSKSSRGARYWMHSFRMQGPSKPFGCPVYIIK
Value type: Kd

Recorded Kd for "C[n+]1cn([C@@H]2O[C@H](COP(=O)(O)OP(=O)(O)OP(=O)(O)O)[C@@H](O)[C@H]2O)c2nc(N)[nH]c(=O)c21" with RVFV CBD (CBD13, RVFV L protein cap-binding domain) (Rift Valley fever virus), please?
~737 µM
